# System: E. coli TESEC Mtb DapB
# METHOD: growth (OD600 after 10 h); higher = more growth (less inhibition)
# CONDITION_SUMMARY: arabinose induction (level): Low; compound 0.1 mM; raw OD600 reference: median of DMSO wells 0.227, cell-free background 0.041
Counter-ions that a name gives are not always drawn.
The compounds listed here are annotated with their growth.
MEASURED_PARAMETER: growth

Cc1cccc(CN2CCN(C(c3ccccc3)c3ccc(Cl)cc3)CC2)c1 (stereo unspecified) [Meclozine dihydrochloride] ... 0.247
COc1ccc2c3c1O[C@H]1C[C@@H](O)C=C[C@@]31CCN(C)C2 [Galanthamine hydrobromide] ... 0.195
C[C@]12C[C@H](O)[C@H]3[C@@H](CCC4=CC(=O)CC[C@@]43C)[C@@H]1CC[C@@H]2C(=O)CO [Corticosterone] ... 0.206
CCCN(CCC)S(=O)(=O)c1ccc(C(=O)O)cc1 [Probenecid] ... 0.223
CC(CNC1CCCCC1)OC(=O)c1ccccc1 (stereo unspecified) [Hexylcaine hydrochloride] ... 0.233
O=C1OCCN1/N=C/c1ccc([N+](=O)[O-])o1 [Furazolidone] ... 0.112

* * *

The compounds listed here are annotated with their growth.
# Test system: E. coli TESEC Alr+ wild-type control
# METHOD: growth (OD600 after 10 h); higher = more growth (less inhibition)
# CONDITION_SUMMARY: compound 0.1 mM; raw OD600 reference: median of DMSO wells 0.241, cell-free background 0.041
Counter-ions that a name gives are not always drawn.
MEASURED_PARAMETER: growth

CC[C@]12CCCN3CCc4c(n(c5ccccc45)C(=O)C1)[C@@H]32 [Eburnamonine (-)] ... 0.182
CC(=O)Oc1ccccc1C(=O)Nc1ncc([N+](=O)[O-])s1 [Nitazoxanide] ... 0.0514
CN(C)CCOc1ccc(/C(=C(/CCCl)c2ccccc2)c2ccccc2)cc1 [Toremifene] ... 0.0414
CCCCN(CCCC)CCCOC(=O)c1ccc(N)cc1 [Butacaine] ... 0.2
N=C(N)NC(=O)Cc1c(Cl)cccc1Cl [Guanfacine hydrochloride] ... 0.241
O=C(O)c1cccnc1Nc1cccc(C(F)(F)F)c1 [Niflumic acid] ... 0.113
COc1ccccc1OCC(O)CN1CCN(CC(=O)Nc2c(C)cccc2C)CC1 (configuration not stated) [Ranolazine] ... 0.207
O=C(OCCOCCO)c1ccccc1Nc1cccc(C(F)(F)F)c1 [Etofenamate] ... 0.0458
Cc1nnc(NS(=O)(=O)c2ccc(N)cc2)s1 [Sulfamethizole] ... 0.254
CN(C/C=C/c1ccccc1)Cc1cccc2ccccc12 [Naftifine hydrochloride] ... 0.0432
CN(C)CCCO[C@@H]1[C@H]2OC(C)(C)O[C@H]2O[C@@H]1[C@H](O)CO [Amiprilose hydrochloride] ... 0.23
COC(=O)C1=C(C)NC(C)=C(C(=O)OC)C1c1ccccc1[N+](=O)[O-] [Nifedipine] ... 0.0488

* * *

# System: E. coli TESEC Alr+ wild-type control
# METHOD: growth (OD600 after 10 h); higher = more growth (less inhibition)
# CONDITION_SUMMARY: compound 0.1 mM; raw OD600 reference: median of DMSO wells 0.49, cell-free background 0.052
Structures can show the parent of a compound that is named as a salt.
MEASURED_PARAMETER: growth

CCn1cc(C(=O)O)c(=O)c2ccc(C)nc21 [Nalidixic acid sodium salt] ... 0.0678
O=C(c1ccccc1)c1ccc2n1CCC2C(=O)O (stereo not drawn) ... 0.531
COC1=C(OC)C(=O)C(CCCCCCCCCCO)=C(C)C1=O ... 0.0491

Where do these numbers come from? They come from the supplement of paper PMC9262897.
